Items are presented alongside their recorded MIC.
Tested on: Vibrio cholerae
experimentSummary: Antibacterial activity against Vibrio cholerae MTCC 3906 after 24 hrs by broth microdilution method
Type: functional
conditions: MTCC 3906, 24 h

The cases that follow already have their MIC on record.
                                   molecule  readoutvalue
0  Cc1nn(-c2ccccc2)c2c1[C@@H]1c3cc4cccc(C)c4nc3SC[C@@H]1C(C)(C)O2 (single isomer, unassigned)     125 µg/mL
1  Cc1nn(-c2cccc(Cl)c2)c2c1[C@@H]1c3cc4cccc(C)c4nc3SC[C@@H]1CO2     200 µg/mL

Now for the molecule whose MIC we want.
The recorded MIC for entry Cc1ccc(-n2nc(C)c3c2OC(C)(C)[C@H]2CSc4nc5c(C)cccc5cc4[C@@H]32)cc1 (single isomer, unassigned) equals 200 µg/mL

====

Tested on: Bacillus subtilis
experimentSummary: Antibacterial activity against Bacillus subtilis MTCC 441 after 24 hrs by broth microdilution method
Format: functional
conditions: MTCC 441, 24 h
Items are presented alongside their recorded MIC.
Respond numerically; units are µg/mL and should not be typed.

>>> print(df.to_string())
                                   compound  readoutvalue
0  Cc1nn(-c2cccc(Cl)c2)c2c1[C@@H]1c3cc4cccc(C)c4nc3SC[C@@H]1C(C)(C)O2 (single isomer, unassigned)           200

Form field MIC for item `Cc1cccc2cc3c(nc12)SC[C@@H]1COc2c(c(-c4ccccc4)nn2-c2ccccc2)[C@H]31` on Bacillus subtilis: 200

Form field MIC for item `c1ccc(-c2nn(-c3ccccc3)c3c2[C@@H]2c4cc5ccccc5nc4SC[C@@H]2CO3)cc1` on Bacillus subtilis: 200

Form field MIC for item `Cc1cc(=O)oc2c3c(ccc12)OC[C@H]1[C@@H]3c2c(-c3ccccc3)nn(-c3ccccc3)c2OC1(C)C` on Bacillus subtilis: 200
